Data origin, for the record: patent US9174946B2

biological target: Y397-FAK phosphorylation (Homo sapiens); construct: endogenous in cells; host or cells: MDA-231-LNA cells; type: cell-based
Sequence (Q05397 whole entry): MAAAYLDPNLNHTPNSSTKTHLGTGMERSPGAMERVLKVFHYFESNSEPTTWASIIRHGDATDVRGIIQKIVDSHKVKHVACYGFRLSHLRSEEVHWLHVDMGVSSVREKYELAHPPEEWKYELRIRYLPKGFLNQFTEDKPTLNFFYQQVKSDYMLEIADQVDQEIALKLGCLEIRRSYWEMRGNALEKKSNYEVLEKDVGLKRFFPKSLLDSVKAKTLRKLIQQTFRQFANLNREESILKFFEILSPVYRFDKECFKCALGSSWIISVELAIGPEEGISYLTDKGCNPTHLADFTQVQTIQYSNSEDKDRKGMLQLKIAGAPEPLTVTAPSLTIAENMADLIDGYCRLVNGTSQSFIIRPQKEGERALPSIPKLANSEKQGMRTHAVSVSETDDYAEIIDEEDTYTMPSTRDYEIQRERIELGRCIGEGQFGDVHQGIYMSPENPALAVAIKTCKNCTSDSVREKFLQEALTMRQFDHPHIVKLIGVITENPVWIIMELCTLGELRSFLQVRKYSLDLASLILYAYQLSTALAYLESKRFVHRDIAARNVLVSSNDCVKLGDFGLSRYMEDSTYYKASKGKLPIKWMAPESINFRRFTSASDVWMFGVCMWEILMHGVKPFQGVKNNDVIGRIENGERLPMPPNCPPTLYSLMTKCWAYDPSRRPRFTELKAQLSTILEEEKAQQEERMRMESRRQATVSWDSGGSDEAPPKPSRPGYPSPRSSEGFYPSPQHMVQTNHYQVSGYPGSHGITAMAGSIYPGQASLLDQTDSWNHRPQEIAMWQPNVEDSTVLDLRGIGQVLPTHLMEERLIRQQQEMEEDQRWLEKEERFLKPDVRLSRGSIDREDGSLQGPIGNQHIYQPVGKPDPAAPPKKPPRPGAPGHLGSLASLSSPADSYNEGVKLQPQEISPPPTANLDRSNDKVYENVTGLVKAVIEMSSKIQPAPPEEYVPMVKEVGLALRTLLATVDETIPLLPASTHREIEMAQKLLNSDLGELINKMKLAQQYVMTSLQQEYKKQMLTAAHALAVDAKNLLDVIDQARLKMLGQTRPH
Assay endpoint: % response of control at 2 μM (%)
The answer is to be given in %; state only the numeric part.

Given the molecule NC(=O)Cc1ccccc1CCc1nc(Nc2ccc(C3CCNCC3)cc2OC(F)(F)F)ncc1C(F)(F)F [Compound 10] , write its reported % response of control at 2 μM.
116

Tell me its % response of control at 2 μM given COc1cc(C2CCN(C)CC2)ccc1Nc1ncc(C(F)(F)F)c(CCc2ccccc2CC(N)=O)n1 [Compound 3] as the entry.
102

Given CN1CCC(c2ccc(Nc3ncc(C(F)(F)F)c(CCc4ccccc4CC(N)=O)n3)c(F)c2)CC1 [Compound 13] , respond with its % response of control at 2 μM.
90

Entry COc1cc(C2CCN(C)CC2)ccc1Nc1ncc(C(F)(F)F)c(CCc2cccc(C(N)=O)c2)n1 [Compound 6] needs its % response of control at 2 μM filled in; supply it.
80

Indicate the recorded % response of control at 2 μM value for this molecule: COc1cc(C2CCNCC2)ccc1Nc1ncc(C(F)(F)F)c(CCc2ccccc2CC(N)=O)n1 [Compound 2]
91

Could you please provide reported % response of control at 2 μM for CN1CCC(c2ccc(Nc3ncc(C(F)(F)F)c(CCc4ccccc4CC(N)=O)n3)c(OC(F)(F)F)c2)CC1 [Compound 11] ? Thanks!
117

Recall and state the measured % response of control at 2 μM for CCN1CCC(c2ccc(Nc3ncc(C(F)(F)F)c(CCc4ccccc4CC(N)=O)n3)c(OC)c2)CC1 [Compound 4] .
108
